target: CCK receptor (Brain) (Cavia porcellus, UniProt H0VZC5); construct: the cortex was removed and homogenized in 25 mL ice-cold 0.32M sucrose; from tissue; host or cells: guinea pig cortex (male Hartley), P2 membrane pellet; assay: biochemical; type: binding, guinea pig (male Hartley), cortex
Sequence (H0VZC5 1-426): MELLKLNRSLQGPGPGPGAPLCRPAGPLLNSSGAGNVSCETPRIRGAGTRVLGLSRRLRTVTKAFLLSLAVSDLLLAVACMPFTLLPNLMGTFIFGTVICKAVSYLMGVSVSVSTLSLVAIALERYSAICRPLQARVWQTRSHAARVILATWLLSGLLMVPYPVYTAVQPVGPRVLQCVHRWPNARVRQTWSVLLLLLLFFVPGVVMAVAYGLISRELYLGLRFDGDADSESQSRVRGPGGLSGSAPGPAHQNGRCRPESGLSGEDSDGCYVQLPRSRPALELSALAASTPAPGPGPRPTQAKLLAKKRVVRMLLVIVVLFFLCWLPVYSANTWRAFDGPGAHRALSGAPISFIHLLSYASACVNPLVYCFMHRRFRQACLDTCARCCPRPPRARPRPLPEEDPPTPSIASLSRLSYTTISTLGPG
assay-metric: IC50 (nM)
Hi! Could you send only the number? It should be in nM, unit omitted.

Requested field: IC50. Item: CN1C(=O)C(NC(=O)Nc2cccc([S+](C)[O-])c2)N=C(C2CCCCC2)c2ccccc21 (racemic) [Example 42]
15

* * *

Target: CCK receptor (Pancreas) (Rattus norvegicus)
Construct: The whole pancreas was dissected free of fat tissue and was homogenized
Sequence (P30551 1-444): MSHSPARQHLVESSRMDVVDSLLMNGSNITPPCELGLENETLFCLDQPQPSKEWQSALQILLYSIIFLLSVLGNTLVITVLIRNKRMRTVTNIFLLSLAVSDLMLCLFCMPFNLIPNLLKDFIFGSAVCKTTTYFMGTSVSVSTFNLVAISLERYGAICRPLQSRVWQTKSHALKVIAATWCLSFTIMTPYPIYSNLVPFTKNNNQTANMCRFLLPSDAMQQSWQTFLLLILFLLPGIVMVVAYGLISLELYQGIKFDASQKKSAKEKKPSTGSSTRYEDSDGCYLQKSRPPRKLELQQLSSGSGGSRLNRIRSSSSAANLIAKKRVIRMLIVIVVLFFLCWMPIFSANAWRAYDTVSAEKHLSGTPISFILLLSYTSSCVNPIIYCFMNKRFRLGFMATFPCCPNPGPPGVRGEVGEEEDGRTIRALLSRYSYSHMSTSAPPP
Assay: CCK Receptor Binding (Pancreas), displacement of 125I-CCK-8
Conditions: 125I-CCK-8 50 pM, rat pancreas membranes, 25° C., 2 hours
Listed here are compounds together with their documented IC50.
Field note: include the unit after the figure.

compound="CN1C(=O)C(NC(=O)Nc2cccc(C(=O)NS(=O)(=O)C(C)(C)C)c2)N=C(C2CCCCC2)c2ccccc21 (racemic)" assay_metric=IC50 experimental_value="6.2 nM"
compound="CN1C(=O)C(NC(=O)Nc2cccc([S+](C)[O-])c2)N=C(C2CCCCC2)c2ccccc21 (racemic)" assay_metric=IC50 experimental_value="18 nM"
compound="CN1C(=O)C(NC(=O)Nc2cccc(S(=O)(=O)Nc3cnccn3)c2)N=C(C2CCCCC2)c2ccccc21 (racemic)" assay_metric=IC50 experimental_value="70 nM"

Please turn your attention to the following entry.
Requested field: IC50. Item: CN1C(=O)C(NC(=O)Nc2cccc(C(=O)NS(=O)(=O)C(C)(C)C)c2)N=C(C2CCCC2)c2ccccc21 (racemic)
270 nM
